Where do the numbers come from? From patent US20250171437A1.

Catalogue of compounds with associated AC50
- TESTED SYSTEM: human PAH with the R408W mutation (A375 R408W cells) (Homo sapiens, UniProt P00439, R408W)
- Construct: expressed in transfected cells
- Sequence (P00439 whole entry R408W): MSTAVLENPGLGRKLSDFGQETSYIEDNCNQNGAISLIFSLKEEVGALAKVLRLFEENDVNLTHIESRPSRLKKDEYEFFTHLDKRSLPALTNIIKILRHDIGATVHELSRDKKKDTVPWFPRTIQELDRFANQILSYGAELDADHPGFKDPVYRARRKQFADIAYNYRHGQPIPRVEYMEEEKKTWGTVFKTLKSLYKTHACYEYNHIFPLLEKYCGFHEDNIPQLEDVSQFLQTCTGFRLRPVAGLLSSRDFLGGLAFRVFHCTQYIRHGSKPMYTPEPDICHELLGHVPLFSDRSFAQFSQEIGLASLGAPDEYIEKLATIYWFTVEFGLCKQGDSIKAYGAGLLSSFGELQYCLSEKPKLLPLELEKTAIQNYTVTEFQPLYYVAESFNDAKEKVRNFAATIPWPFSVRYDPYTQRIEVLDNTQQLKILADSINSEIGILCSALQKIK
- ASSAY NOTES: Cell Based Phenylalanine Flux Assay
- REPORTED CONDITIONS: A375 R408W cells; 24 hrs with compound, then 20 μM sepiapterin and 800 μM 13C9,15N-Phenylalanine for 4 hours; 13C-Tyrosine by LC-MS; average where tested multiple times
OUTCOME MEASURE: AC50

COMPOUND	TESTED SYSTEM	RESULT
O=C(c1cnn2cc(Br)c(Cl)cc12)N1CCc2[nH]cnc2[C@H]1c1nc2cc(F)ccc2o1 [Example 165]	human PAH with the R408W mutation (A375 R408W cells) (Homo sapiens, UniProt P00439, R408W)	≤ 500 nM
O=C(c1cnco1)N1CCc2[nH]cnc2[C@@H]1c1nc2cccc(F)c2o1 [Example 282]	human PAH with the R408W mutation (A375 R408W cells) (Homo sapiens, UniProt P00439, R408W)	1000 to 5000 nM
Cc1ncoc1C(=O)N1CCc2[nH]cnc2[C@H]1c1nc2ccccc2o1 [Example 793]	human PAH with the R408W mutation (A375 R408W cells) (Homo sapiens, UniProt P00439, R408W)	≤ 500 nM
O=C(c1ocnc1C(F)F)N1CCc2[nH]cnc2[C@H]1c1nc2ccccc2o1 [Example 467]	human PAH with the R408W mutation (A375 R408W cells) (Homo sapiens, UniProt P00439, R408W)	≤ 500 nM
